Value source: the supplement of paper PMC12420376

Tested on: OVCAR8
Test: drug sensitivity score (DSS2) on cancer cell count; higher = more sensitive; extreme values may be limits of the assay
Conditions: co-cultured fibroblast: BJHTERT; 72 h
MEASUREMENT TYPE: drug sensitivity score

>  <COMPOUND>
C[C@@H]1COC(Nc2ccc3ncnc(Nc4ccc(OCc5nccs5)c(Cl)c4)c3c2)=N1 [Varlitinib]

>  <RESULT>
0 DSS

$$$$
>  <COMPOUND>
CCNc1nc(Nc2cc(F)c(C(=O)N3CCOCC3)cc2OC)ncc1C(F)(F)F [GNE-7915]

>  <RESULT>
0 DSS

$$$$
>  <COMPOUND>
CCc1c2c(nc3ccc(O)cc13)-c1cc3c(c(=O)n1C2)COC(=O)[C@]3(O)CC [SN-38]

>  <RESULT>
40.9 DSS

$$$$
>  <COMPOUND>
C[C@@H](Oc1cc(-n2cnc3ccc(CN4CCN(C)CC4)cc32)sc1C(N)=O)c1ccccc1C(F)(F)F

>  <RESULT>
42.4 DSS

$$$$
>  <COMPOUND>
COc1cc(Nc2c(C#N)cnc3cc(OCCCN4CCN(C)CC4)c(OC)cc23)c(Cl)cc1Cl [Bosutinib]

>  <RESULT>
8.6 DSS

$$$$
>  <COMPOUND>
C[C@@H](C(=O)O)c1ccc(-c2ccccc2)c(F)c1 [Tarenflurbil]

>  <RESULT>
0.7 DSS

$$$$
>  <COMPOUND>
COc1ccc(S(=O)(=O)Nc2cccnc2Nc2ccc(O)cc2)cc1 [ABT-751]

>  <RESULT>
18.7 DSS

$$$$
>  <COMPOUND>
CC[C@@H]1C(=O)OC[C@@H]1Cc1cncn1C [Pilocarpine]

>  <RESULT>
0 DSS

$$$$
>  <COMPOUND>
COC[C@H](NC(=O)c1cnc(C)s1)C(=O)N[C@@H](COC)C(=O)N[C@@H](Cc1ccccc1)C(=O)[C@@]1(C)CO1 [Oprozomib]

>  <RESULT>
17.7 DSS

$$$$
>  <COMPOUND>
COc1nc(N)nc2c1ncn2[C@@H]1O[C@H](CO)[C@@H](O)[C@@H]1O [Nelarabine]

>  <RESULT>
1 DSS

$$$$
>  <COMPOUND>
C[C@@H](Nc1cc(F)cc(F)c1)c1cc(C(=O)N(C)C)cc2c(=O)cc(N3CCOCC3)oc12 [AZD-8186]

>  <RESULT>
0 DSS

$$$$
>  <COMPOUND>
O=C(/C=C\n1cnc(-c2cc(C(F)(F)F)cc(C(F)(F)F)c2)n1)NNc1ccccn1 [Verdinexor]

>  <RESULT>
10.2 DSS

$$$$
>  <COMPOUND>
O=C(CCCCCCC(=O)Nc1ccccc1)NO [Vorinostat]

>  <RESULT>
17.1 DSS

$$$$
>  <COMPOUND>
N#Cc1ccnc(N2C(=O)CC[C@H]2C(=O)N(c2cncc(F)c2)[C@H](C(=O)NC2CC(F)(F)C2)c2ccccc2Cl)c1 [Ivosidenib]

>  <RESULT>
2.1 DSS

$$$$
>  <COMPOUND>
CN(C)c1cc2c(cc1Sc1nc3c(N)nccc3n1CCNCC(C)(C)C)OCO2 [CUDC-305]

>  <RESULT>
16.5 DSS

$$$$
>  <COMPOUND>
CCOc1ccn(-c2ccc(F)cc2)c(=O)c1C(=O)Nc1ccc(Oc2ccnc(N)c2Cl)c(F)c1

>  <RESULT>
0 DSS

$$$$
>  <COMPOUND>
O=C(c1ccc(OCCN2CCCCC2)cc1)c1c(-c2ccc(O)cc2)sc2cc(O)ccc12 [Raloxifene]

>  <RESULT>
2.5 DSS

$$$$
>  <COMPOUND>
CN(Cc1cnc2nc(N)nc(N)c2n1)c1ccc(C(=O)N[C@@H](CCC(=O)O)C(=O)O)cc1 [Methotrexate]

>  <RESULT>
12.3 DSS

$$$$
>  <COMPOUND>
CNCc1ccc(-c2[nH]c3cc(F)cc4c3c2CCNC4=O)cc1 [Rucaparib]

>  <RESULT>
8.5 DSS

$$$$
>  <COMPOUND>
Cc1c(F)cc(C(=O)NC2CC2)cc1-c1ccc(C(=O)NCC(C)(C)C)cn1 [Losmapimod]

>  <RESULT>
0.7 DSS

$$$$
>  <COMPOUND>
COc1cc(N2CCC(N3CCN(C)CC3)CC2)ccc1Nc1ncnc(Nc2ccccc2S(=O)(=O)C(C)C)n1 [ASP3026]

>  <RESULT>
8.6 DSS

$$$$
>  <COMPOUND>
CC(C)N(CCCNC(=O)Nc1ccc(C(C)(C)C)cc1)C[C@H]1O[C@@H](n2cc(Br)c3c(N)ncnc32)[C@H](O)[C@@H]1O [SGC0946]

>  <RESULT>
0 DSS

$$$$
>  <COMPOUND>
COCCNCc1ccc(-c2cc3nccc(Oc4ccc(NC(=S)NC(=O)Cc5ccc(F)cc5)cc4F)c3s2)nc1 [Glesatinib]

>  <RESULT>
0 DSS

$$$$
>  <COMPOUND>
C[C@H]1CNCCCN1S(=O)(=O)c1cccc2cncc(F)c12 [Ripasudil]

>  <RESULT>
3 DSS

$$$$
>  <COMPOUND>
C#Cc1cccc(Nc2ncnc3cc(OCCOC)c(OCCOC)cc23)c1 [Erlotinib]

>  <RESULT>
3.1 DSS

$$$$
>  <COMPOUND>
CCOc1ccccc1-n1c(C(C)N2CCN(C(=O)COc3ccc(Cl)cc3)CC2)nc2ccccc2c1=O (stereo not drawn) [Erastin]

>  <RESULT>
17.9 DSS

$$$$
>  <COMPOUND>
COC(=O)C[C@](O)(CCCC(C)(C)O)C(=O)O[C@@H]1C(OC)=C[C@]23CCCN2CCc2cc4c(cc2[C@H]13)OCO4 [Omacetaxine]

>  <RESULT>
29.3 DSS

$$$$
>  <COMPOUND>
COCC[n+]1c2c(n(Cc3cnccn3)c1C)C(=O)c1ccccc1C2=O [Sepantronium bromide]

>  <RESULT>
37.1 DSS

$$$$
>  <COMPOUND>
Cc1ccc(C(=O)N(CCCN)[C@@H](c2oc3cc(Cl)ccc3c(=O)c2Cc2ccccc2)C(C)C)cc1

>  <RESULT>
5.2 DSS

$$$$
>  <COMPOUND>
COCC1(CO)C(=O)C2CCN1CC2 (stereo not drawn) [APR-246]

>  <RESULT>
0 DSS

$$$$
>  <COMPOUND>
COc1cc(N2CCN(C)CC2)ccc1Nc1nccc(-c2cn(C)c3cnccc23)n1 [AZ191]

>  <RESULT>
3.3 DSS

$$$$
>  <COMPOUND>
CCc1cc2c(cc1N1CCC(N3CCOCC3)CC1)C(C)(C)c1[nH]c3cc(C#N)ccc3c1C2=O [Alectinib]

>  <RESULT>
0 DSS

$$$$
>  <COMPOUND>
COc1ccc(-c2ccc3c(N4CCOC[C@@H]4C)nc(N4CCOC[C@@H]4C)nc3n2)cc1CO [AZD8055]

>  <RESULT>
17.9 DSS

$$$$
